molecular target: FKBP51 / FRB ternary complex (Homo sapiens (Human), UniProt P42345+Q13451); test: SPR assay to characterize ternary complex formation with FKBP51 (FRB binding to rapalog-saturated FKBP51); settings: FRB dilutions with 100 nM rapalog on immobilized FKBP51
pKd: −log10 of the molar value.
testReadout: pKd

Reported pKd for CO[C@@H]1C[C@H](C[C@@H](C)[C@@H]2CC(=O)[C@H](C)/C=C(\C)[C@@H](O)[C@@H](OC)C(=O)[C@H](C)C[C@H](C)/C=C/C=C/C=C(\C)[C@@H](OCCCO)C[C@@H]3CC[C@@H](C)[C@@](O)(O3)C(=O)C(=O)N3CCCC[C@H]3C(=O)O2)CC[C@H]1OCCCS(C)(=O)=O : what is it?
< 6.10

# ---- query compound ----
Reported pKd for COCCOCCS(=O)(=O)NC1CC2CCC(C)C(O)(O2)C(=O)C(=O)N2CCCCC2C(=O)OC(C(C)CC2CCC(OCCCO)C(OC)C2)CC(=O)C(C)C=C(C)C(O)C(OC)C(=O)C(C)CC(C)C=CC=CC=C1C (centres unmarked) [Compound 3] : what is it?
< 6.10

====

target: mTORC1 (Homo sapiens (Human), UniProt P42345+P62942); test: mTORC1 inhibition, AlphaLISA of Phospho-p70 S6 kinase (p70S6K pT389) in PC-3 cells; format: cell-based; conditions: inhibition of p70S6K pT389 levels
Measured IC50 values are reported for all entries that follow.

In the examples that follow, each entry is paired with its recorded IC50.
Reported IC50 for COCCOCCS(=O)(=O)NC1CC2CCC(C)C(O)(O2)C(=O)C(=O)N2CCCCC2C(=O)OC(C(C)CC2CCC(OCCCO)C(OC)C2)CC(=O)C(C)C=C(C)C(O)C(OC)C(=O)C(C)CC(C)C=CC=CC=C1C (stereo not shown) [Compound 2] : what is it?
< 0.1 nM

Reported IC50 for COC1CC(CC(C)C2CC(=O)C(C)C=C(C)C(O)C(OC)C(=O)C(C)CC(C)C=CC=CC=C(C)C(OCCC3COC3)CC3CCC(C)C(O)(O3)C(=O)C(=O)N3CCCCC3C(=O)O2)CCC1OCCO (stereo not shown) : what is it?
0.1 to 0.8 nM

Reported IC50 for CO[C@@H]1C[C@H](C[C@@H](C)[C@@H]2CC(=O)[C@H](C)/C=C(\C)[C@@H](O)[C@@H](OC)C(=O)[C@H](C)C[C@H](C)/C=C/C=C/C=C(\C)[C@@H](OCC3CC3)C[C@@H]3CC[C@@H](C)[C@@](O)(O3)C(=O)C(=O)N3CCCC[C@H]3C(=O)O2)CC[C@H]1OCCCS(C)(=O)=O : what is it?
0.1 to 0.8 nM

---
Reported IC50 for CO[C@@H]1C[C@H](C[C@@H](C)[C@@H]2CC(=O)[C@H](C)/C=C(\C)[C@@H](O)[C@@H](OC)C(=O)[C@H](C)C[C@H](C)/C=C/C=C/C=C(\C)[C@@H](OCCC3CCO3)C[C@@H]3CC[C@@H](C)[C@@](O)(O3)C(=O)C(=O)N3CCCC[C@H]3C(=O)O2)CC[C@H]1O (stereo partly shown) : what is it?
0.1 to 0.8 nM

====

Measured pKd values are reported for all entries that follow.
molecular target: FKBP51 / FRB ternary complex (Homo sapiens (Human), UniProt P42345+Q13451); experiment: SPR assay to characterize ternary complex formation with FKBP51 (FRB binding to rapalog-saturated FKBP51); details: FRB dilutions with 100 nM rapalog on immobilized FKBP51
pKd: −log10 of the molar value.

Reported pKd for COC1CC(CC(C)C2CC(=O)C(C)C=C(C)C(O)C(OC)C(=O)C(C)CC(C)C=CC=CC=C(C)C(OCC3CCC3)CC3CCC(C)C(O)(O3)C(=O)C(=O)N3CCCCC3C(=O)O2)CCC1OCCO (centres unmarked) [Compound 45] : what is it?
> 6.52

Reported pKd for COC1CC(CC(C)C2CC(=O)C(C)C=C(C)C(O)C(OC)C(=O)C(C)CC(C)C=CC=CC=C(C)C(OCC3CC(F)(F)C3)CC3CCC(C)C(O)(O3)C(=O)C(=O)N3CCCCC3C(=O)O2)CCC1O (centres unmarked) [Compound 41] : what is it?
< 6.10

Reported pKd for COCCS(=O)(=O)NC1CC2CCC(C)C(O)(O2)C(=O)C(=O)N2CCCCC2C(=O)OC(C(C)CC2CCC(OCCO)C(OC)C2)CC(=O)C(C)C=C(C)C(O)C(OC)C(=O)C(C)CC(C)C=CC=CC=C1C (mixture of isomers) [Compound 16] : what is it?
< 6.10

---
Reported pKd for COC1CC(CC(C)C2CC(=O)C(C)C=C(C)C(O)C(OC)C(=O)C(C)CC(C)C=CC=CC=C(C)C(OCC3CCC3)CC3CCC(C)C(O)(O3)C(=O)C(=O)N3CCCCC3C(=O)O2)CCC1OCCCO (centres unmarked) [Compound 44] : what is it?
< 6.10

Reported pKd for CO[C@@H]1C[C@H](C[C@@H](C)[C@@H]2CC(=O)[C@H](C)/C=C(\C)[C@@H](O)[C@@H](OC)C(=O)[C@H](C)C[C@H](C)/C=C/C=C/C=C(\C)[C@@H](OCC3CC3)C[C@@H]3CC[C@@H](C)[C@@](O)(O3)C(=O)C(=O)N3CCCC[C@H]3C(=O)O2)CC[C@H]1OCCCS(C)(=O)=O [Compound 60] : what is it?
< 6.10
